Every entry's value here was drawn from patent US20240034737A1.

# SYSTEM: mP2X7 (Mus musculus (Mouse), UniProt Q9Z1M0)
# Sequence (Q9Z1M0 whole entry): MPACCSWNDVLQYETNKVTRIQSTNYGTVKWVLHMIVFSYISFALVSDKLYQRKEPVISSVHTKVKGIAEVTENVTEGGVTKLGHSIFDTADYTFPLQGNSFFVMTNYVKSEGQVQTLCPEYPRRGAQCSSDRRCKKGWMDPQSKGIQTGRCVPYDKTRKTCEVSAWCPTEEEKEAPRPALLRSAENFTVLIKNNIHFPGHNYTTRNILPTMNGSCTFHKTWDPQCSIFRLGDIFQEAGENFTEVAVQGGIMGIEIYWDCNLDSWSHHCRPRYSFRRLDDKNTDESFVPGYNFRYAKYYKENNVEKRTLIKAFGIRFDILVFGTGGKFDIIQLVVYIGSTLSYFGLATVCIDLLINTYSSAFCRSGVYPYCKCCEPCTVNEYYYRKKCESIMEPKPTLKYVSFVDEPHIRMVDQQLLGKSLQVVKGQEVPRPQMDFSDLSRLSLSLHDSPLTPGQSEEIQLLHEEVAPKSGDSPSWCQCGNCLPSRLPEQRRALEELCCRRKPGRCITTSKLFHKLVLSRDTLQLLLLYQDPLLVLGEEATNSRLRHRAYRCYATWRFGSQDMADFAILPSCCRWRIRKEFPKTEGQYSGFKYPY
# PROTOCOL: mP2X7 channel calcium-influx assay (Fluo-8 NW, FLIPR TETRA, Bz-ATP stimulation)
pIC50: −log10 of the molar value.
ENDPOINT_NAME: pIC50

O=C(NCC(c1scnc1C(F)F)N1CCC(Oc2cc(C(F)(F)F)ncn2)CC1)c1c(F)cccc1Cl (stereo not shown) [Example 43]	7.19
O=C(NCC(c1scnc1C(F)F)N1CCC(Oc2nccc(C(F)(F)F)n2)CC1)c1c(F)cccc1Cl (stereo not shown) [Example 42]	6.97
COc1cc(OC2CCN(C(CNC(=O)c3c(F)cccc3Cl)c3scnc3C(F)F)CC2)ncn1 (stereo not shown) [Example 65]	7.02
Cn1ncc2c(OC3CCN(C(CNC(=O)c4c(F)cccc4Cl)c4scnc4C(F)F)CC3)ncnc21 (stereo not shown) [Example 51]	7.16

----------
# SYSTEM: mP2X7 (Mus musculus (Mouse))
# PROTOCOL: mP2X7 channel calcium-influx assay (Fluo-8 NW, FLIPR TETRA, Bz-ATP stimulation)
pIC50: −log10 of the molar value.
ENDPOINT_NAME: pIC50

O=C(NCC(c1scnc1C(F)F)N1CCC(COc2nc(C3CC3)ns2)CC1)c1c(F)cccc1Cl (centres unmarked)	7.52
O=C(NCC(c1scnc1C(F)F)N1CCC(Oc2nccc3ncccc23)CC1)c1c(F)cccc1Cl (centres unmarked)	7.71
O=C(NCC(c1scnc1C(F)F)N1CCC(Oc2cncc(-n3cccn3)n2)CC1)c1c(F)cccc1Cl (centres unmarked)	7.94
N#Cc1cccc(OCC2CCN(C(CNC(=O)c3c(F)cccc3Cl)c3scnc3C(F)F)CC2)n1 (centres unmarked)	7.72

1. N#Cc1ccncc1OCC1CCN(C(CNC(=O)c2c(F)cccc2Cl)c2scnc2C(F)F)CC1 (centres unmarked)
2. Cc1cc(OC2CCN(C(CNC(=O)c3c(F)cccc3Cl)c3scnc3C(F)F)CC2)ccn1 (centres unmarked)
3. N#Cc1nccnc1OC1CCN(C(CNC(=O)c2c(F)cccc2Cl)c2scnc2C(F)F)CC1 (centres unmarked)
4. Cc1nnc2c(OC3CCN(C(CNC(=O)c4c(F)cccc4Cl)c4scnc4C(F)F)CC3)nccn12 (centres unmarked)
// sort entries: pIC50, high to low I'd appreciate it if you listed the labels in the requested order.
1, 2, 3, 4
(1: 7.79, 2: 7.15, 3: 6.49, 4: 6.24)

----------
# SYSTEM: mP2X7 (Mus musculus (Mouse))
# PROTOCOL: mP2X7 channel calcium-influx assay (Fluo-8 NW, FLIPR TETRA, Bz-ATP stimulation)
pIC50: −log10 of the molar value.
ENDPOINT_NAME: pIC50

O=C(NCC(c1scnc1C(F)F)N1CCC(Oc2ccc(F)cn2)CC1)c1c(F)cccc1Cl (stereo not shown)	7.62
O=C(NCC(c1scnc1C(F)F)N1CCC(COc2nc3ccccc3s2)CC1)c1c(F)cccc1Cl (stereo not shown)	7.64
O=C(NCC(c1scnc1C(F)F)N1CCC(COc2cncc3nncn23)CC1)c1c(F)cccc1Cl (stereo not shown)	6.59
O=C(NCC(c1scnc1C(F)F)N1CCC(COc2nccn3nccc23)CC1)c1c(F)cccc1Cl (stereo not shown)	7.95
O=C(NCC(c1scnc1C(F)F)N1CCC(Oc2ncccn2)CC1)c1c(F)cccc1Cl (stereo not shown)	6.39

I. O=C(NCC(c1scnc1C(F)F)N1CCC(Oc2ccncc2)CC1)c1c(F)cccc1Cl (stereo not shown)
II. Cc1nsc(OC2CCN(C(CNC(=O)c3c(F)cccc3Cl)c3scnc3C(F)F)CC2)n1 (stereo not shown)
Just tell me: smaller pIC50 value, I or II ? Returns: label corresponding to the selected item.
II

1. N#Cc1cncc(OC2CCN(C(CNC(=O)c3c(F)cccc3Cl)c3scnc3C(F)F)CC2)c1 (stereo not shown)
2. O=C(NCC(c1scnc1C(F)F)N1CCC(Oc2cccnc2)CC1)c1c(F)cccc1Cl (stereo not shown)
3. O=C(NCC(c1scnc1C(F)F)N1CCC(COc2cccc(F)n2)CC1)c1c(F)cccc1Cl (stereo not shown)
// sort entries: pIC50, high to low I'd appreciate it if you listed the labels in the requested order.
3, 2, 1

P. O=C(NCC(c1scnc1C(F)F)N1CCC(COc2nccc(C(F)(F)F)n2)CC1)c1c(F)cccc1Cl (stereo not shown)
Q. O=C(NCC(c1scnc1C(F)F)N1CCC(Oc2cnccn2)CC1)c1c(F)cccc1Cl (stereo not shown)
When P and Q are compared, which has the higher number for pIC50? Returns: label corresponding to the selected item.
P
